Entries and their growth inhibition values follow.
Assay: yeast growth toxicity, wild-type and mutant, primary screen, cytotoxicity control for eIF2B function restoration project, wild-type and eIF2Bepsilon R284H mutant, A595 (AID 685);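 further: 0% = untreated cell controls and 100% = YPD media blanks without cells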
Conditions: S. cerevisiae eIF2Bepsilon-R284H mutant growth, A595 turbidity, 16 h; stronger effect = higher value; screened at 25 µM (by protocol)
Out of some 30,000 compounds screened, about 80 (0.3%) were called active. The full list was thinned out, with actives kept by preference.
Please reply with the bare figure in % and do not write the unit itself.

A selection of reference data follows.
[[record]]
compound = "Cc1nnc(SCC(=O)NC(=O)NC2CCCC2)n1N"
metric = "growth inhibition"
quantityunit = "%"
reportedmeasurement = 17.4

[[record]]
compound = "Cc1nnc(SCC(=O)Nc2ncc3c(n2)CC(C)(C)CC3=O)s1"
metric = "growth inhibition"
quantityunit = "%"
reportedmeasurement = 10.3

[[record]]
compound = "Cn1c(N)c(C(=O)COC(=O)C23CC4CC(CC(C4)C2)C3)c(=O)n(C)c1=O"
metric = "growth inhibition"
quantityunit = "%"
reportedmeasurement = 11.6


Prompt: Query growth inhibition for Cc1ccc(-c2cc(C(=O)NCC3CCCO3)c3ccccc3n2)o1 (configuration not stated)
Completion: -6.45

Prompt: # return recorded growth inhibition for entry "COCCCNC(=O)COc1cc(C)c(Cl)c(C)c1"
Completion: -13.6

Prompt: Read the entry "CCCCc1nnc(NC(=O)CSc2nc(C)cc(=O)[nH]2)s1" and write its reported growth inhibition.
Completion: 20

Prompt: Using known records, supply growth inhibition for "O=c1c2ccccc2nc2n1C1(CCCCC1)Cc1ccccc1-2"
Completion: 2.94

Prompt: Give the measured growth inhibition for "COC(=O)/C(NC(C)=O)=C(\C)c1ccc(Cl)cc1"
Completion: -32.3

Prompt: Report growth inhibition for "CCOc1ccc(S(=O)(=O)Nc2ccc(S(=O)(=O)Nc3cc(OC)ccc3OC)cc2)cc1"
Completion: 6.38

Prompt: Note down growth inhibition recorded for "C=C(C)CSc1nnc(-c2ccc(C)cc2)n1N"
Completion: 10.3

Prompt: Dear colleague, please send me the reported growth inhibition for "CCOC(=O)c1c(NC(=O)CSc2nnc(CNc3ccc(C)cc3C)o2)sc(C)c1C" when you can.
Completion: 25.9

Prompt: Give the reported value of growth inhibition for this record: "CC(=NCc1ccco1)c1c(C(F)(F)F)[nH]n(-c2nc3ccccc3s2)c1=O"
Completion: 7.61

Prompt: # return recorded growth inhibition for input "CC(C)(CNC(=O)c1cc(=O)[nH]c2ccccc12)N1CCOCC1"
Completion: -23.8

Prompt: Kindly indicate its recorded growth inhibition. Item: "Cc1ccc(S(=O)(=O)NC(=O)COc2ccccc2C)cc1"
Completion: 10.5

Prompt: Return growth inhibition for the following compound: "O=C(CN1CCOCC1)Nc1ccccc1"
Completion: 12.8

Prompt: Consider the compound "CS(=O)(=O)N(CC(=O)N1CCN(c2ccc(F)cc2)CC1)C1CCCCC1" and give its recorded growth inhibition.
Completion: 4.76

* * *

Attribute: growth inhibition
Test: yeast growth toxicity, wild-type and mutant, primary screen, cytotoxicity control for eIF2B function restoration project, wild-type and eIF2Bepsilon R284H mutant, A595 (AID 685);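 further: 0% = untreated cell controls and 100% = YPD media blanks without cells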
Settings: S. cerevisiae eIF2Bepsilon-R284H mutant growth, A595 turbidity, 16 h; stronger effect = higher value; screened at 25 µM (by protocol)
The campaign covered roughly 30,000 compounds. About 80 (0.3%) were called active. Many of the other results were omitted from the sample, so actives are more common in it than they were.
Form entry: value (%) — number only.

Some solved entries appear below for comparison.
[[record]]
compound = "CCOC(=O)C1C(=O)NCC1c1ccccc1 (stereo not given)"
metric = "growth inhibition"
reportedmeasurement = 22.1

[[record]]
compound = "N/C(=N\\OC(=O)Nc1ccc(Cl)c(Cl)c1)c1ncc(C(F)(F)F)cc1Cl"
metric = "growth inhibition"
reportedmeasurement = 30.3

[[record]]
compound = "Nc1c(C(=O)NCc2ccccc2)sc2nc3c(cc12)C(=O)CCC3"
metric = "growth inhibition"
reportedmeasurement = 0


Prompt: Respond only with growth inhibition recorded for "NC(=O)c1ncc(C(F)(F)F)cc1Oc1ccc(F)cc1"
Completion: -3.33

Prompt: Consider the compound COc1cccc2c1OCC1COc3c(c(=O)n(C)c(=O)n3C)C21 (stereo not given) and give its recorded growth inhibition.
Completion: 8.33

Prompt: Item "COc1cccc(OCc2cc(/C=N/NC(=O)c3nc(Cl)c(Cl)c(N)c3Cl)ccc2OC)c1" : provide growth inhibition
Completion: -17.9
